Molecular target: chymotrypsin-like (ChL) activity of rabbit proteasome fraction II (Oryctolagus cuniculus)
Sequence (G1T4Q9 1-263): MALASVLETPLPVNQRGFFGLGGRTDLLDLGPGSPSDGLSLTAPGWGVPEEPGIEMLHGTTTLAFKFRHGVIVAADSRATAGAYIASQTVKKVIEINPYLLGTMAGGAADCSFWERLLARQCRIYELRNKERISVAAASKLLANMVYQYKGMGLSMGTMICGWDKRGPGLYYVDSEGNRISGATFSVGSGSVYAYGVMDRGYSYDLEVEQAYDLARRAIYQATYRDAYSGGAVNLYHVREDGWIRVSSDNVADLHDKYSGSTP
Peptide text beside a SMILES is read from it. * marks the point of attachment. Cbz = O=C(OCc1ccccc1)*
valueKind: IC50 (nM)
Answers are plain numbers, in nM.

Data point: CC(C)C[C@@H](C=O)NC(=O)[C@H](CC(C)C)NC(=O)[C@H](CC(C)C)NC(=O)OCc1ccccc1 [MG132] (Cbz-Leu-Leu-Leu-aldehyde) ; IC50 = 620

----------
Target: caspase-like (CaL) activity of rabbit proteasome fraction II (Oryctolagus cuniculus)
Sequence (A0A5F9DQW2 1-212): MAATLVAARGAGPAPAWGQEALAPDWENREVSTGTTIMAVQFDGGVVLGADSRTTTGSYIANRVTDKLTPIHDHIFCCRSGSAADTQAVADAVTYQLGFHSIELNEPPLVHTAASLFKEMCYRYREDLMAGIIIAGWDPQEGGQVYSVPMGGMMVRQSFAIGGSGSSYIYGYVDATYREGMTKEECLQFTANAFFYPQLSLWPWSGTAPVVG
Peptide text beside a SMILES is read from it. * marks the point of attachment. Cbz = O=C(OCc1ccccc1)*
valueKind: pIC50
Numbers only, as −log10 of the molar value.

So for CC(C)C[C@@H](C=O)NC(=O)[C@H](CC(C)C)NC(=O)[C@H](CC(C)C)NC(=O)OCc1ccccc1 [MG132] (Cbz-Leu-Leu-Leu-aldehyde) , the logged pIC50 turned out to be 3.74

Reference source for all entries: paper PMC4340355
